Where these numbers come from: patent US20190367592A1

Target: T1, recombinant human Tau monomer, 2N4R isoform (amino acids 2-441) (human, UniProt P10636-8 2-441)
T1 construct: range 2-441; N-terminal His-tag removed with TEV protease; also called monomeric Tau
T1 sequence (P10636 other isoform, or with tags, fused parts or gaps limits assumed): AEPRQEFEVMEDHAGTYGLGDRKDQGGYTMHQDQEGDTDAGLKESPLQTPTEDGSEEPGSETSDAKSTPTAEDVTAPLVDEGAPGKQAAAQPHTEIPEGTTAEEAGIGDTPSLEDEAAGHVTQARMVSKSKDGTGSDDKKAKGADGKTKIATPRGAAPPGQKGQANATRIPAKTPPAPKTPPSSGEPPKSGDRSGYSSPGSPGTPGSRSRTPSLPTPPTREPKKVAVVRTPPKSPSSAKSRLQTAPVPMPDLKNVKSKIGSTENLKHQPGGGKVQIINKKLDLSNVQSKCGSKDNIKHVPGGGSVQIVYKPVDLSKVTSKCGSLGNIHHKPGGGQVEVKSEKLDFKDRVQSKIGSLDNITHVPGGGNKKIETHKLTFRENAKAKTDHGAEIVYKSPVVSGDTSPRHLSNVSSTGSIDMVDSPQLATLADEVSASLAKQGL
Experiment: SPR, mIgG2a captured, Tau monomer analyte, 1:1 fit
Exercise: state measured kon for each of the binders provided.
Give bare numbers, in M⁻¹ s⁻¹.

Examples with answers:
Quick one: kon of 125B11-H3 (antibody, mouse IgG2a, V domains shown, also called 125B1-H3) VH: EVKLEESGGGLVQPGGSMKLSCVASRFIFSNYWMNWVRQSPEKGLEWVAQIRLKSDNYATHYAESVKGRFTISRDDSKSSVYLQMNNLRAEDTGIYYCTGGTTYWGQGTTLTVSS VL: DIVMTQSQKFLSTSVGDRVNITCKASQNVGTAVAWYQQKPGQSPGLLIYSASIRYTGVPDRFTGNGSGTDFTLTISDMQSEDLADYFCQQFRTYPYTFGGGTKLEIK ? 50000

3A4-H4 (antibody, mouse IgG2a, V domains shown) VH: EVQLVESGGDLVKPGGSLKLSCAASGFTFSSYGMSWVRQTPDKRLEWVATISSGGTYTYYPDSVKGRFTISRDNAKNTLYLQMSSLKSEDTAMYFCATSYDGAMDYWGQGTSVTVSS VL: DVLMTQTPLSLPVSLGDQASISCRSSQNIVHSNGNTYLEWYLQKPGQSPKLLIYKVSNRFSGVPDRFSGSGSGTDFTLKISRVEAEDLGVYYCFQGTLVPWTFGGGTKLEIK , same question. 30000

Continuing:
Quick one: kon of 126F11-G11 (antibody, mouse IgG2a, V domains shown) VH: EVQLQQSGAELVRPGASVKLSCTASGFNIKDDYMHWVKQRPEQGLEWIGWIDPENGDTEYASKFQGKATITTDTSSNTAYLQLSSLTSEDTAVYYCLDFAYGYWGQGTTLTVSS VL: DVLMTQTPLSLPVSLGDQASISCRSSQSIVHSNGNTYLEWYLQKPGQSPKLLIYKVSNRFSGVPDRFSGSGSGTDFTLKISRVEAEDLGVYYCFQGSHVPPAFGGGTKLEIK ? 2e+06
